protocol: Cytotoxicity against human HepG2 cells assessed as cellular ATP level at 30 uM after 1 day by ATPLite assay relative to control
Assay type: cell-based
settings: read-out: Activity
Response field label takes TRUE when viability at 24 h, 30 µM is strictly below 0.5% and FALSE in all other cases.

Below are worked cases with known answers.
| line_notation | class_assignment |
| --- | --- |
| CNCc1cc(-c2cccc(F)c2)n(S(=O)(=O)c2ccc(C)cc2)c1 | FALSE |
| CNCc1cc(-c2ccccc2C)n(S(=O)(=O)c2ccc(C)cc2)c1 | TRUE |
| CNCc1cc(-c2ccccc2)n(S(=O)(=O)c2ccccc2)c1 | FALSE |
| CNCc1cc(-c2ccccc2F)n(S(=O)(=O)c2ccc(C)cc2)c1 | FALSE |
| CNCc1cc(-c2ccccc2)n(S(=O)(=O)c2ccc(C)cc2)c1 | FALSE |

IN: Find out if reported viability at 24 h, 30 µM for `CNCc1cc(-c2ccc(F)cc2)n(S(=O)(=O)c2ccc(C)cc2)c1` is less than 0.5%
OUT: TRUE

IN: Find out if reported viability at 24 h, 30 µM for `CNCc1cc(-c2ccccc2)n(S(=O)(=O)c2ccc(OC)cc2)c1` is less than 0.5%
OUT: FALSE
